tested on: barnyard grass (Eo); test: Test Example 1: herbicidal effects by flooded paddy field treatment; type: in vivo; design: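 0-5 growth inhibition grade; 5 = over 90%; 4 = 70-90%; 3 = 50-70%; 2 = 30-50%; 1 = 10-30%; 0 = under 10%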; settings: dose 100 g active ingredient per 10 ares, examined on the 21st day after treatment, standards of Table 44
Measured endpoint: herbicidal effects, Eo (barnyard grass)
Keep the answer to the number alone.

## Task Sample CC(C)C(c1cncnc1C(F)(F)F)N(C)C(=O)CSc1ccc(Cl)cc1 (racemic) — what was its herbicidal effects, Eo (barnyard grass)?
## Result 5

## Task Reported herbicidal effects, Eo (barnyard grass), compound CC(C)CC(c1cncnc1C(F)(F)F)N(C)C(=O)Cc1ccccc1 (racemic) : ____
## Result 5

## Task Which herbicidal effects, Eo (barnyard grass) is listed for CC(C)C(c1cncnc1C(F)(F)F)N(C)C(=O)C(=O)c1ccccc1 (racemic) ?
## Result 5

## Task Recorded herbicidal effects, Eo (barnyard grass) for CC(C)CC(c1cncnc1C(F)(F)F)N(C)C(=O)Cc1cccc(F)c1 (racemic) , please?
## Result 5

## Task Consider the compound shown here: CCN(C(=O)Cc1ccccc1)C(c1cncnc1C(F)F)C(C)C (racemic) What is its recorded herbicidal effects, Eo (barnyard grass)?
## Result 5

## Task Can you share its herbicidal effects, Eo (barnyard grass)? I mean this compound: CCN(C(=O)Cc1ccc(F)cc1)C(c1cncnc1C(F)F)C(C)C (racemic)
## Result 5

## Task Record request: herbicidal effects, Eo (barnyard grass) value, item CC(C)C(c1cncnc1C(F)(F)F)N(C)C(=O)C(C)(C)c1ccc(Cl)cc1 (racemic)
## Result 5

## Task What value of herbicidal effects, Eo (barnyard grass) has been reported for the following compound? CC(C)C(c1cncnc1C(F)(F)F)N(C)C(=O)Cc1cccs1 (racemic)
## Result 5

## Task Reported herbicidal effects, Eo (barnyard grass), compound Cc1ccc(CC(=O)N(C)C(c2ccccc2)c2cncnc2C(F)(F)F)cc1 (racemic) : ____
## Result 5

## Task Return reported herbicidal effects, Eo (barnyard grass); argument: CC(=O)c1ncncc1C(C(C)C)N(C)C(=O)Cc1ccc(Cl)cc1 (racemic)
## Result 5

## Task I have this compound here, CC(C)C(c1cncnc1C(F)(F)F)N(C)C(=O)COc1nc2ccccc2s1 (racemic) , and I need its recorded herbicidal effects, Eo (barnyard grass).
## Result 5

## Task Which value of herbicidal effects, Eo (barnyard grass) has been reported for CCCC(c1cncnc1C(C)C)N(C)C(=O)Cc1ccc(C)cc1 (racemic) in the records?
## Result 5

## Task Item under review: Cc1ccc(CC(=O)N(C)C(c2ccc(F)cc2)c2cncnc2C(F)(F)F)cc1 (racemic) . Reported herbicidal effects, Eo (barnyard grass)?
## Result 5

## Task Which herbicidal effects, Eo (barnyard grass) is reported for this compound? CC(C)C(c1cncnc1C(F)(F)F)N(C)C(=O)N(C)c1ccc(F)cc1 (racemic)
## Result 5

## Task // lookup herbicidal effects, Eo (barnyard grass) for CN(C(=O)Cc1ccsc1)C(c1ccccc1)c1cncnc1C(F)(F)F (racemic)
## Result 5

## Task Which measured herbicidal effects, Eo (barnyard grass) value corresponds to CCN(C(=O)Cc1cccs1)C(c1cncnc1C(F)F)C(C)C (racemic) ?
## Result 5

## Task Given the entry CC(C)C(c1cncnc1C(F)(F)F)N(C)C(=O)Cc1ccc(Cl)s1 (racemic) , report its measured herbicidal effects, Eo (barnyard grass).
## Result 5

## Task Please report the recorded herbicidal effects, Eo (barnyard grass) for CCN(C(=O)Cc1cccc(F)c1)C(c1cncnc1C(F)(F)F)C(C)C (racemic) .
## Result 5

## Task Report herbicidal effects, Eo (barnyard grass) for CC(=O)c1ncncc1C(C(C)C)N(C)C(=O)Cc1ccc(C)cc1 (racemic) please.
## Result 5

## Task Item CN(C(=O)Cc1ccc(Cl)s1)C(c1cncnc1C(F)(F)F)C(C)(C)C (racemic) has what recorded herbicidal effects, Eo (barnyard grass)?
## Result 5

## Task Reported herbicidal effects, Eo (barnyard grass) for CC(C)C(c1cncnc1C(F)(F)F)N(C)C(=O)N(C)c1ccc(Cl)cc1 (racemic) : what is it?
## Result 5

## Task Given the entry COc1ccc(C(c2cncnc2C(F)(F)F)N(C)C(=O)Cc2ccc(Cl)cc2)cc1 (racemic) , report its measured herbicidal effects, Eo (barnyard grass).
## Result 5

## Task Endpoint output: herbicidal effects, Eo (barnyard grass) of COc1ccc(OC(=O)N(C)C(c2cncnc2C(F)(F)Cl)C(C)C)cc1 (racemic) . Value?
## Result 5

## Task Could you tell me which herbicidal effects, Eo (barnyard grass) is on file for CCN(C(=O)Cc1ccsc1)C(c1cncnc1C(F)(F)F)C(C)C (racemic) ?
## Result 5

## Task Recorded herbicidal effects, Eo (barnyard grass) for CN(C(=O)Cc1ccsc1)C(c1cncnc1C(F)(F)F)C(C)(C)C (racemic) , please?
## Result 5

## Task Consider the compound CCC(c1cncnc1C(C)(C)C)N(C)C(=O)Cc1ccc(Cl)cc1 (racemic) and give its measured herbicidal effects, Eo (barnyard grass).
## Result 5

## Task Could you share which herbicidal effects, Eo (barnyard grass) value was measured for CC(C)CC(c1cncnc1C(F)(F)F)N(C)C(=O)Cc1ccsc1 (racemic) ?
## Result 5

## Task Return reported herbicidal effects, Eo (barnyard grass); argument: COCc1ncncc1C(C(C)C)N(C)C(=O)C(C)c1ccc(Cl)cc1 (mixture of isomers)
## Result 5

## Task Fill in: herbicidal effects, Eo (barnyard grass) of CCCc1ncncc1C(C(C)C)N(C)C(=O)Cc1ccccc1 (racemic) is ___
## Result 5

## Task Fill in: herbicidal effects, Eo (barnyard grass) of CCCc1ncncc1C(C(C)C)N(C)C(=O)Cc1ccc(Cl)cc1 (racemic) is ___
## Result 5

## Task Need herbicidal effects, Eo (barnyard grass) of CC(C)C(c1cncnc1C(F)(F)F)N(C)C(=O)Cc1cc(F)c(F)c(F)c1 (racemic) , thanks.
## Result 5

## Task Can you share its herbicidal effects, Eo (barnyard grass)? I mean this compound: Cc1ccc(CC(=O)N(C)C(c2ccccc2C)c2cncnc2C(F)(F)F)cc1 (racemic)
## Result 5

## Task Please report the recorded herbicidal effects, Eo (barnyard grass) for CC(C)C(c1cncnc1C=NO)N(C)C(=O)Cc1ccc(F)cc1 (racemic) .
## Result 5

## Task What value of herbicidal effects, Eo (barnyard grass) has been reported for the following compound? Cc1ccc(CC(=O)N(C)C(c2cncnc2C(F)(F)F)C2CCCC2)cc1 (racemic)
## Result 5
